- Assay Remarks: inhibitors of PAF-induced NF-kB signaling, retest, confirmation, cell-based, GFP fluorescence, single concentration (AID 602472);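 further: stimulus PAF is a Pseudomonas aeruginosa filtrate and not platelet activating factor; plate controls were DMSO wells with stimulus for no effect and unstimulated DMSO wells for full effect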
- Assay Conditions: KKLEB CF airway cells, overnight, at 5 µM, stronger effect = higher value
The list shows a part of the results.
Observed Property: inhibition (%)
Your answer is read as %, so omit the unit and give the number.

Reference set (5 entries):
COC(=O)c1ccc(NC(=O)c2ccccc2NS(=O)(=O)c2ccccc2)cc1 ... 69.8
c1nnc2c3c4c(sc3ncn12)CCC4 ... 22.1
O=C(/C=C/c1ccc(Cl)c([N+](=O)[O-])c1)c1ccc(O)cc1 ... -37.9
O=C(Nc1nnc(S(=O)(=O)N2CCCCCC2)s1)c1cccc(Br)c1 ... 77.4
COc1ccc(NC(=S)SC)cc1OC ... 39.3

Prompt: Please report inhibition for the following compound: `Cc1c(C)c2ccc(OCC(=O)N3CCN(c4cccc(Cl)c4)CC3)cc2oc1=O`
Response: 10.3

Prompt: Please report inhibition for the following compound: `CCSc1nsc(NC(=O)Nc2cccc(C(C)=O)c2)n1`
Response: 98.9

Prompt: Please report inhibition for the following compound: `Cc1ccc(CCC(=O)Nc2ncc(Cc3cc(Cl)ccc3Cl)s2)o1`
Response: 83.8

Prompt: Please report inhibition for the following compound: `CCCc1nc2c(c(=O)c3ccccc3n2C)c(=O)n1C1CCCCCC1`
Response: 46.9

Prompt: Please report inhibition for the following compound: `COc1cc(OC)cc(C(=O)N[C@H](C(=O)Nc2nc3ccccc3[nH]2)C(C)C)c1`
Response: 85.8

====

- Assay Remarks: caspase-8 TRAIL sensitization, hit retest, confirmation, cell-based, NB7+caspase-8, with/without TRAIL, luminescence panel (AID 651596)
- Assay Conditions: NB7 neuroblastoma + caspase-8, without TRAIL, luminescence viability, without TRAIL, mean of runs, at 10 µM
Observed Property: activity (%)
Your answer is read as %, so omit the unit and give the number.

COn1c(SCc2cccc(Cl)c2)nc2ccccc2c1=O ... 26.3
CC1(C)N=C(N)N=C(N)N1c1cccc(C#N)c1 ... 86.1
CCCCCCCn1c2c(c(=N)c3ccccc31)CCC2 ... 51.8
O=C(/C=C/c1ccc(Cl)cc1Cl)N1CCc2ccccc21 ... 51.4
O=C(Nc1ccc2c(c1)OCCO2)c1ccc(Cl)cc1 ... 69.5

Attention now shifts to the item below.
Prompt: Please report activity for the following compound: `Cc1ccc(S(=O)(=O)n2ccc3c(OCCOCCNCc4ccc(F)cc4)cccc32)cc1`
Response: 26.4

====

- Assay Remarks: inhibitors of PAF-induced NFkB signaling in CF airway cells, dose response, cell-based, uHTS hits, panel, cytotoxicity readout (AID 624344)
- Assay Conditions: CF bronchial epithelial cells, PAF-induced NFkB reporter inhibition, with PAF, run 1; at 79 µM (top of the series) unless noted
Observed Property: inhibition (%)
Your answer is read as %, so omit the unit and give the number.

Reference set (3 entries):
COc1ccc(Nc2nccc(-c3cccc(N)c3)n2)cc1 ... 103
CC(=O)Nc1ccc(S(=O)(=O)N2c3ccccc3C(C)=CC2(C)C)cc1 ... 93.9
Cc1ccnc(NC(=O)CCCOc2cc(=O)n(C)c3ccccc23)c1 ... 105

Prompt: Please report inhibition for the following compound: `CCOC(=O)N1CCC(NC(=O)c2ccc3c(c2)N=C(C)c2c(C)ccc(C)c2S3)CC1`
Response: 92.2

Prompt: Please report inhibition for the following compound: CCC(C)Oc1cc(-c2ccnc(Nc3cccc(Cl)c3)n2)ccn1 (stereo not drawn)
Response: 102

Prompt: Please report inhibition for the following compound: `Cc1ccc2c(c1)C(=O)C(=O)N2Cc1ccc(Br)cc1`
Response: 106

Prompt: Please report inhibition for the following compound: `c1ccc(-c2nc3nonc3nc2-c2ccccc2)cc1`
Response: 102

Prompt: Please report inhibition for the following compound: `COc1ccc(/C=N/NC(=O)c2[nH]c3ccc(Br)cc3c2-c2ccccc2)cc1`
Response: 88.4

Prompt: Please report inhibition for the following compound: C=Cc1ccc(CC2(C)C(=O)Nc3ccc(-c4cccnc4)cc32)cc1 (stereo not drawn)
Response: 113

Prompt: Please report inhibition for the following compound: C/C=C/COC(=O)c1[nH]c2c(c1C)C(=O)CC(c1ccco1)C2 (stereo not drawn)
Response: 106

Prompt: Please report inhibition for the following compound: O=C1OC(c2ccccc2)(c2cc(Br)ccc2O)c2ccccc21 (stereo not drawn)
Response: 105

Prompt: Please report inhibition for the following compound: `Cc1nc2sc(C(N)=O)c(N)c2c2c1CCCC2`
Response: 116

Prompt: Please report inhibition for the following compound: `Cc1ccc(CSc2nccc(-c3c(C)nc4ccccn34)n2)cc1`
Response: 101

Prompt: Please report inhibition for the following compound: C=C1C(=O)C23C(O)C1CCC2C12COC3(O)C(O)C1C(C)(C)CCC2O (stereo not drawn)
Response: 87.7

Prompt: Please report inhibition for the following compound: `Nc1ncnc(NCc2ccc(F)cc2)c1[N+](=O)[O-]`
Response: 99

Prompt: Please report inhibition for the following compound: `Cc1cccc(Nc2ncnc3ccc(Br)cc23)c1`
Response: 103

Prompt: Please report inhibition for the following compound: COc1ccc(COC(=O)C2=C(C)NC(=O)NC2c2ccc(OC)cc2)cc1 (stereo not drawn)
Response: 76.8

Prompt: Please report inhibition for the following compound: `Cc1ccc2nc(C(F)(F)F)c(C#N)c(N)c2c1`
Response: 114

Prompt: Please report inhibition for the following compound: Cc1c(C(=O)OC2CCCC2)[nH]c2c1C(=O)CC(c1ccco1)C2 (stereo not drawn)
Response: 29

Prompt: Please report inhibition for the following compound: `COc1cccc(-c2ccc3ncnc(NCc4cccs4)c3c2)c1`
Response: 117

====

- System Tested: Tumor necrosis factor receptor superfamily member 10B (Homo sapiens) (UniProt O14763)
- Sequence (O14763 whole entry, looked up): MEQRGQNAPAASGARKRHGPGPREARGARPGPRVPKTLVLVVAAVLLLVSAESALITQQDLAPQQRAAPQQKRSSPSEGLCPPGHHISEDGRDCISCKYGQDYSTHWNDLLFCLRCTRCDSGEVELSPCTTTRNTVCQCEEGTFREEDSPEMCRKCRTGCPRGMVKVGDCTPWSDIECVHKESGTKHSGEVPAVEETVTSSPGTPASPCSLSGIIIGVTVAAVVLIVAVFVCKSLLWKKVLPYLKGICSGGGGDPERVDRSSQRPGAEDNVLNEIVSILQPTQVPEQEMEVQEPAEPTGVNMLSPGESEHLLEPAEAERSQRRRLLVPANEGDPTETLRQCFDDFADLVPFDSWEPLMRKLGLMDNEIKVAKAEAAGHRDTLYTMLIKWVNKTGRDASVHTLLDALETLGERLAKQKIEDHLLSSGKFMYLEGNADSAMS
- Assay Remarks: caspase-8 TRAIL sensitization, hit retest, confirmation, cell-based, NB7+caspase-8, with/without TRAIL, luminescence panel (AID 651596)
- Assay Conditions: NB7 neuroblastoma + caspase-8, TRAIL sensitization, luminescence viability, with TRAIL, mean of runs, at 10 µM, stronger effect = higher value
Class definitions on activity: low interval (below 60%), middle interval (60% to below 80%), high interval (80% or more)

Consider the following illustrative entries.
CCOC(=O)c1cnc2c(-c3ccccc3)cnn2c1N ... middle interval
Cc1cc(C(=O)COC(=O)c2ccccc2O)c(C)n1Cc1cccs1 ... high interval
COc1ccc(/C=C/C(=O)c2ccc([N+](=O)[O-])o2)cc1 ... low interval
O=C1Cc2c(-c3ccccc3)cc(-c3cccc(Cl)c3)nc2-c2ccccc2N1 ... low interval
CC(C)c1nnc(NC(=O)c2c(O)c3cccc4c3n(c2=O)CCC4)s1 ... low interval
CCOc1ccc(-c2cc(C(=O)N3CCC(C)CC3)c3ccccc3n2)cc1 ... low interval
O=C(NNC(=O)c1cc(OCC(F)(F)F)ccc1OCC(F)(F)F)c1ccc(Cl)c(Cl)c1 ... middle interval
CCOc1ccc2nc(NC(=O)c3cccc(-c4cc5ccccc5oc4=O)c3)sc2c1 ... low interval
CCn1nnc(NC(=O)c2ccc(C(C)(C)C)cc2)n1 ... middle interval
CCN(CC)C(=O)c1nn(-c2ccccc2)c2c1C1CCC2(C)C1(C)C (centres undefined) ... low interval

Prompt: Which band does `CCCNC(=O)c1ccc(-c2nc3ccccc3s2)s1` fall in?
Response: high interval

Prompt: Which band does `Cc1ccc(C(=O)Nc2ccc3c(c2)OCCO3)c(Cl)c1` fall in?
Response: high interval

Prompt: Which band does CC1CCc2nc(NC(=O)c3ccco3)sc2C1 (centres undefined) fall in?
Response: high interval

Prompt: Which band does `CC(C)c1ccc(/C=N/NC(=O)c2ccccn2)cc1` fall in?
Response: high interval

Prompt: Which band does `N#Cc1cc2c(nc1SCC(=O)Nc1nccs1)CCCCC2` fall in?
Response: middle interval

====

- System Tested: PEG-3 (UniProt Q6IN02)
- Sequence (Q6IN02 whole entry, looked up): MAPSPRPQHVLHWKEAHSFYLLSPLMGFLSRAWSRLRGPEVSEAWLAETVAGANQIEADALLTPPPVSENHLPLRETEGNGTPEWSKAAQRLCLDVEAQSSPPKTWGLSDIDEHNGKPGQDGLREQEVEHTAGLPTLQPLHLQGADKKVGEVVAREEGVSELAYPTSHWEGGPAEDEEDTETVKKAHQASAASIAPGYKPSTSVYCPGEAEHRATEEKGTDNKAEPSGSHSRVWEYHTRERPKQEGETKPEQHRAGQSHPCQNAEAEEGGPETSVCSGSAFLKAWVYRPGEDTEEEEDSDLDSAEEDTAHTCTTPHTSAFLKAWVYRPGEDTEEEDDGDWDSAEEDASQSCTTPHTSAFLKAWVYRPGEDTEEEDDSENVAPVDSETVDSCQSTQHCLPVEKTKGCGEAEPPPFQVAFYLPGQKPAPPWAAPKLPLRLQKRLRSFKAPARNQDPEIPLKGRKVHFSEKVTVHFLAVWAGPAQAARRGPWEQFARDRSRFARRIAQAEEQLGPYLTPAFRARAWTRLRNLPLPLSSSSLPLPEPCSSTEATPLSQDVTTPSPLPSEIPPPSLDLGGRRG
- Assay Remarks: Peg3 promoter luciferase inhibitors, potency, dose response, cell-based, HeLa, CREF/GAPDH counter-screen panel (AID 624167)
- Assay Conditions: CREF/GAPDH counter-screens; HeLa PEG-Prom luciferase reporter, overnight, run 1, dose range 1, at 100 µM (top of the series) unless noted
Observed Property: inhibition (%)
Your answer is read as %, so omit the unit and give the number.

Reference set (5 entries):
CN(O)C(=S)c1ccccc1 ... 27
CCN1CCN(CCNC(=O)c2ccc(/C=C3\Sc4ccccc4N(Cc4ccccc4F)C3=O)cc2)CC1 ... 102
O=[N+]([O-])c1ccc(-c2nc(Nc3cccc(O)c3)c3ccccc3n2)cc1 ... 99.4
c1ccc(C(=NNc2nc3ccccc3s2)c2ccccn2)cc1 ... 101
CN(C)C(=O)c1cccc(-c2cnc3c(NC=O)cc(-c4cccc(C(F)(F)F)c4)cn23)c1 ... 89.1

Prompt: Please report inhibition for the following compound: `CCN(CCN(C)C)C(=O)C1CCN(S(=O)(=O)c2c(C)noc2/C=C/c2ccccc2F)CC1`
Response: 90.8

Prompt: Please report inhibition for the following compound: `CCOC(=O)c1cnc2c(cnn2C)c1NCCCN(C)C`
Response: 80.7

Prompt: Please report inhibition for the following compound: `O=c1c2ccccc2sc2ccc(C#CC3(O)CCCCC3)cc12`
Response: 99.4

Prompt: Please report inhibition for the following compound: COc1ccc(C2c3ccc4ccccc4c3Oc3ncn(CCO)c(=N)c32)cc1OC (stereo not given)
Response: 99.1

Prompt: Please report inhibition for the following compound: CCC1(c2ccccc2)NC(=O)N(CC(=O)Nc2cc(S(=O)(=O)N3CCCCCC3)ccc2OC)C1=O (stereo not given)
Response: 65.1
